- Tested on: HO-1-N-1 (Oral Cavity Carcinoma);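 also: after 72 h of two-drug dosing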
- Assay remarks: Bliss excess, mean over the matrix (fraction); higher = more synergy
Consider the following compounds and their measured Bliss excess readings.

# Compound, Measured on, Bliss excess
data = [
    ("C=CCn1c(=O)c2cnc(Nc3ccc(N4CCN(C)CC4)cc3)nc2n1-c1cccc(C(C)(C)O)n1 [AZD1775] + CCc1c2c(nc3ccc(O)cc13)-c1cc3c(c(=O)n1C2)COC(=O)[C@]3(O)CC [SN-38] (first compound max 1 µM, partner max 0.3 µM)", "HO-1-N-1 (Oral Cavity Carcinoma)", -0.0092),
    ("NC1(C(=O)N[C@@H](CCO)c2ccc(Cl)cc2)CCN(c2ncnc3[nH]ccc23)CC1 [Capivasertib] + CC(C)n1c(=O)n(C)c2cnc3cc(F)c(-c4ccc(OCCCN5CCCCC5)nc4)cc3c21 [AZD1390] (first compound max 10 µM, 7x7, partner max 0.3 µM)", "HO-1-N-1 (Oral Cavity Carcinoma)", 0.0055),
    ("Cn1cnc2c(F)c(Nc3ccc(Br)cc3Cl)c(C(=O)NOCCO)cc21 [Selumetinib] + CCN(CCO)CCCOc1ccc2c(Nc3cc(CC(=O)Nc4cccc(F)c4)[nH]n3)ncnc2c1 [AZD2811] (first compound max 10 µM, 7x7, partner max 1 µM)", "HO-1-N-1 (Oral Cavity Carcinoma)", -0.0692),
    ("Cc1c2c(nn1C)CSCc1cc(n(C)n1)CSc1cc(c3ccccc3c1)OCCCc1c(C(=O)O)n(C)c3c-2c(Cl)ccc13 [AZD5991] + CS(=O)(=O)CCNCc1ccc(-c2ccc3ncnc(Nc4ccc(OCc5cccc(F)c5)c(Cl)c4)c3c2)o1 [Lapatinib] (first compound max 1 µM, 7x7, partner max 10 µM)", "HO-1-N-1 (Oral Cavity Carcinoma)", 0.0972),
]
